Each recorded value in this set is attributed to PubChem BioAssay (NCI).

- measurement protocol: NCI Yeast Anticancer Drug Screen. Data for the CLN2oe strain (AID 163);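 further: 0% = growth of vehicle-only control cultures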
- test conditions: S. cerevisiae CLN2oe strain, at 11.0 µM, active compounds read high
The panel holds about 79,000 compounds, 15% with a hit somewhere; the sample as a whole holds those more often.
Classify by measured growth inhibition: condition met if it is equal to or exceeds 20%, condition not met if it is smaller.

-- ask Textbook exercise: given the entry Cc1cc(OCc2nc(N)nc(N)c2-c2ccc(Cl)c(Cl)c2)ccc1[N+](=O)[O-] , state whether its growth inhibition is greater than or equal to 20%.
-- reply condition not met

-- ask Please check the record CC(=O)NC(c1nc2cc(C)c(C)cc2[nH]1)c1nc2cc(C)c(C)cc2[nH]1 and state if its growth inhibition is at or above 20%.
-- reply condition not met

-- ask Does the compound O=C(O)C1CCCCC1c1c2ccc(=O)cc-2oc2cc(O)ccc12 (stereo unspecified) have recorded growth inhibition that is 20% or more?
-- reply condition not met

-- ask Is the recorded value of growth inhibition equal to or greater than 20% for this compound? CC1(C)CC(=O)C(C(=O)Nc2cccs2)=C(O)C1
-- reply condition met

-- ask Could you tell me if the measured growth inhibition of Nc1ccc(S(=O)(=O)Nc2nc3c(c(=O)[nH]2)CCCC3)cc1 reaches 20% or more?
-- reply condition met

-- ask State whether the measured growth inhibition reaches 20%, counting equality as reaching it, for S=C(NCc1ccccn1)N/N=C/c1ccccn1
-- reply condition met

-- ask Evaluate CCCCCCCCSC1=C(Cl)C(=O)C(OC)=C(OC)C1=O : growth inhibition at minimum 20%?
-- reply condition met

-- ask Identify whether the reported growth inhibition of the following compound is 20% or greater: CC(C)OP(=O)(OC(C)C)/C(Cl)=N/Nc1ccc([N+](=O)[O-])cc1
-- reply condition met

-- ask Is reported growth inhibition greater than or equal to 20% here: CCCCOc1ccc2nc(C)cc(N=[N+]=[N-])c2c1
-- reply condition not met

-- ask Does growth inhibition meet or surpass 20% for CCOP(=O)(OCC)/C(C#N)=C/c1ccc(-c2ccc(F)cc2F)o1 ?
-- reply condition not met

-- ask Assess whether reported growth inhibition for OC1(c2ccccc2)C2CC=CC2C1(c1ccccc1)c1ccccc1 (stereo unspecified) sits at 20% or higher.
-- reply condition not met

---

Give measured growth inhibition for each item. Keep answers brief.
- measurement protocol: NCI Yeast Anticancer Drug Screen. Data for the wt2 strain (AID 169);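 further: 0% = growth of vehicle-treated yeast cultures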
- test conditions: S. cerevisiae wt2 strain growth inhibition; at 33.0 µM; active compounds read high
The panel holds about 79,000 compounds, 15% with a hit somewhere; the sample as a whole holds those more often.
Just the number please, in %, no unit attached.

-- ask Need growth inhibition, item COc1ccc(/C=C2\SC(=S)N(/C=C3\C(=O)N(c4ccccc4)N=C3C)C2=O)cc1OC
-- reply 82

-- ask # growth inhibition lookup, item COc1ccc2nc(CCc3ccccc3)ccc2c1
-- reply 39

-- ask Suppose we examine the compound NCCCSc1ccccc1 ; what growth inhibition value has been reported?
-- reply -2

-- ask Return reported growth inhibition; argument: COc1cccc(C(NC2=NCCC=N2)c2cc3c(cc2O)OCO3)c1O (stereo unspecified)
-- reply 18

-- ask Using the record for c1ccc(-c2cc(C3CO3)c3ccccc3n2)cc1 (stereo unspecified) , report its growth inhibition.
-- reply 77

-- ask Endpoint output: growth inhibition of CC(C)=CCc1c2c(c(O)c3c(=O)c(-c4ccc(O)c(O)c4)coc13)C=CC(C)(C)O2 . Value?
-- reply 92

-- ask # input compound: OC1(C#CI)CCCCC1 ; wanted: its growth inhibition
-- reply 99

-- ask Query (compound): CCS(=O)(=O)Nc1ccc(Nc2c3ccccc3nc3ccccc23)c(OC)c1 ; field requested: growth inhibition
-- reply -1

-- ask Returns the measured growth inhibition for the input compound. Input: [N-]=[N+]=NC1(c2ccccc2)C(=O)Nc2ccccc2C1=O (stereo unspecified)
-- reply 13

-- ask Look up growth inhibition: c1c[nH]c(CN2CCN(Cc3ncc[nH]3)CC2)n1
-- reply 99

-- ask Given NC(N)=NS(=O)(=O)c1ccc(Nc2c3ccccc3nc3c(C(=O)NC(CO)(CO)CO)cccc23)cc1 , state its recorded growth inhibition.
-- reply -1

---

So I've got a bunch of molecules here, and I need their growth inhibition values.
- measurement protocol: NCI Yeast Anticancer Drug Screen. Data for the cln2 rad14 strain (AID 165);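 further: 0% = growth equal to vehicle treated cultures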
- test conditions: S. cerevisiae cln2 rad14 strain, at 50.0 µM (retest, dose inferred, filed as 5.0), active compounds read high
Compounds without any hit were thinned out: in the full panel of roughly 79,000, 15% have a hit.
Please respond with the number in % and leave the unit unwritten.

-- ask Field request: growth inhibition | item: O=P(C(=S)Nc1c(Cl)cccc1Cl)(c1ccccc1)c1ccccc1
-- reply 96

-- ask What growth inhibition value was documented for this molecule, CCCCCCNCCCNc1c2cc(OC)ccc2nc2cccc([N+](=O)[O-])c12 ?
-- reply 99

-- ask Form field: reported growth inhibition of O=C1c2cccc3cccc(c23)C(=O)N1O
-- reply 98

-- ask // returns reported growth inhibition for input CCS(=O)(=O)Nc1ccc(Nc2c3ccccc3nc3ccccc23)c(OC)c1
-- reply 84

-- ask So what's the measured growth inhibition for this one? O=C1C(/C=C/c2ccc(Cl)cc2)=NNC2N1N=C1NC(=O)C3(NN12)c1ccccc1-c1ccccc13 (stereo not drawn)
-- reply 32

-- ask Can you share its growth inhibition? I mean this molecule: CCOc1ccc2nc3ccccc3c(N)c2c1
-- reply 84

-- ask Fill in: growth inhibition of CC1CCN(CCC(=O)c2ccc([N+](=O)[O-])cc2)CC1 is ___
-- reply 34

-- ask Quick check: growth inhibition of O=C1C(=C2CCCC2)CCC1CN1CCCCC1 (stereo not drawn) ?
-- reply 14

-- ask I would be grateful if you could share the reported growth inhibition for CCN(CC)CCNc1ccc2nc(C)n3c4ccc(O)cc4c(=O)c1c23 .
-- reply 28

-- ask Which value of growth inhibition has been reported for CCOC(=O)/C(=C\c1cccc(C)c1)C(C)=O in the records?
-- reply 88

-- ask Which growth inhibition value belongs to CCC[CH2][Sn]([CH2]CCC)([CH2]CCC)/[C](=C/[Si](C)(C)c1ccccc1)c1ccc2c(c1)OCO2 ?
-- reply 7

-- ask Name the reported growth inhibition value associated with the molecule O=C(c1ccccc1)[C@H]1Nc2ccc(Cl)cc2[C@H]2OCCC[C@@H]12
-- reply 44

-- ask Return reported growth inhibition; argument: CN(C)CC1=Nc2cccc3cccc(c23)N1
-- reply -16

-- ask For the molecule Cc1cccc2c1C1c3c(C)cccc3C(CC(=O)O)CC1CC2 (stereo not drawn) , what growth inhibition is on record?
-- reply 98

-- ask Requested field: growth inhibition. Item: O=C1Oc2ccccc2C(=O)/C1=C/N1C(=O)N/C(=C\c2ccccc2Br)C1=O
-- reply 13

-- ask # query: growth inhibition of entry CCCN=Cc1cc(Cc2ccc(O)c(C=NCCC)c2)ccc1O
-- reply -84

-- ask Look up growth inhibition for this molecule: CC(C(=O)N1C(=O)N(C(=O)C(C)C(O)c2ccccc2)C2CCCCC21)C(O)c1ccccc1 (stereo not drawn)
-- reply 14

-- ask Sample Cc1ccc(S(=O)(=O)Nc2cccc3cccnc23)cc1 — what was its growth inhibition?
-- reply 54

-- ask Please give the measured growth inhibition for this molecule: CC(C)N(CCCNc1c2ccccc2nc2cccc([N+](=O)[O-])c12)C(C)C
-- reply 98

-- ask Fill in the blank: the reported growth inhibition of CC1=CN2C(c3ccccc3)=NON(c3ccc(C)cn3)C2C=C1 (stereo not drawn) is ____.
-- reply -17

-- ask Item COc1ccc(C(C)c2cc3c(cc2OC(C)O)OCO3)cc1 (stereo not drawn) has what recorded growth inhibition?
-- reply 1

-- ask Entry CS(=O)(=O)O.[Ag] : reported growth inhibition = ?
-- reply 98

-- ask Would you mind telling me what growth inhibition value was observed for O=C(c1cc(=O)c2ccc(O)cc2o1)c1ccc(Cl)cc1Cl ?
-- reply 93

---

- measurement protocol: NCI Yeast Anticancer Drug Screen. Data for the CLN2oe strain (AID 163);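 further: 0% = growth of vehicle-only control cultures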
- test conditions: S. cerevisiae CLN2oe strain, at 3.7 µM, active compounds read high
The panel holds about 79,000 compounds, 15% with a hit somewhere; the sample as a whole holds those more often.
Give growth inhibition for every item shown.
Please give a number only; it is taken to be in %.

-- ask Please report the recorded growth inhibition for O=C(Cc1ccccc1)NNc1nc(NNC(=O)c2ccncc2)nc(Nc2ccc([N+](=O)[O-])cc2)n1 .
-- reply -4

-- ask Recorded growth inhibition of CC(C)(CN1CCCCC1)C(=O)/C=C/c1c(Cl)cccc1Cl , please.
-- reply 54

-- ask // growth inhibition lookup, key: COc1ccccc1/C=C\C(=O)C1COCN1 (configuration not stated)
-- reply 1

-- ask Which growth inhibition value is on record for CC1CCN(CCC(=O)c2ccc([N+](=O)[O-])cc2)CC1 ?
-- reply 5

-- ask Reported growth inhibition, compound CC(C)C(=O)CC(Sc1ccc(N)cc1)c1ccccc1 (configuration not stated) : ____
-- reply -13

-- ask Entry C=C(C(=O)OC)N1C(=O)CC(C)C1=O (configuration not stated) has what growth inhibition?
-- reply 11

-- ask Item under review: c1ccc2c(c1)ccn2CCc1c[nH]c2ccccc12 . Reported growth inhibition?
-- reply 21

-- ask Given the compound Oc1ccc(N=Nc2ccc(Cl)cc2)cc1 , what is its reported growth inhibition?
-- reply 45

-- ask Using the record for CCCCCCCCSC1=C(Cl)C(=O)C(OC)=C(OC)C1=O , report its growth inhibition.
-- reply -6

-- ask Consider the compound shown here: Cc1cc(O)c(C(C)C)cc1SC#N What is its recorded growth inhibition?
-- reply -17

-- ask Form field: reported growth inhibition of CCOC(=O)/C(=C\c1ccc(F)cc1)C(C)=O
-- reply 4

-- ask Look at this compound and give its reported growth inhibition. CN(C)CC1=Nc2cccc3cccc(c23)N1
-- reply -8
